Item-by-item account of pIC50
Target: His-tagged N-terminal ATP binding domain (amino acid residues 9-236) of HSP90α (Homo sapiens)
Assay: HSP90 inhibitor binding potency: TRF competition binding assay
Conditions: Table I; read-out: Hsp90 IC50 Range
pIC50: −log10 of the molar value.

Below, each entry is followed by its recorded pIC50 result.
{"molecule": "Cc1nc(N)nc2c1C(=O)CC(c1c(OCCN3CCN(C)CC3)cccc1-c1cccnc1F)C2 (stereo not drawn) [Compound 158]", "result": "> 6.00"}
{"molecule": "COc1cccc(C2=CCCCC2)c1C1CC(=O)c2c(C)nc(N)nc2C1 (stereo not drawn) [Compound 78]", "result": "> 6.00"}
{"molecule": "Cc1nc(N)nc2c1C(=O)CC(c1c(OCCN3CCOCC3)cccc1-c1cccnc1F)C2 (stereo not drawn) [Compound 157]", "result": "> 6.00"}
{"molecule": "COc1cccc(Oc2ccccc2C2CC(=O)c3c(C)nc(N)nc3C2)n1 (stereo not drawn) [Compound 146]", "result": "> 6.00"}
{"molecule": "COc1ccncc1-c1ccccc1C1CC(=O)c2c(C)nc(N)nc2C1 (stereo not drawn) [Compound 72]", "result": "5.00 to 6.00"}
{"molecule": "Cc1nc(N)nc2c1C(=O)CC(c1cccnc1-c1cnccn1)C2 (stereo not drawn) [Compound 34]", "result": "5.00 to 6.00"}

Entry COc1ccc(-c2cccnc2F)c(C2CC(=O)c3c(C)nc(N)nc3C2)c1 (stereo not drawn) [Compound 98] , pIC50 reported as > 6.00

Entry Cc1nc(N)nc2c1C(=O)CC(c1nn(C)cc1C1CCCCC1)C2 (stereo not drawn) [Compound 47] , pIC50 reported as > 6.00

Entry Cc1nc(N)nc2c1C(=O)CC(c1ccccc1CCc1ccccc1)C2 (stereo not drawn) [Compound 162] , pIC50 reported as < 5.00

Entry Cc1nc(N)nc2c1C(=O)CC(c1ccccc1Oc1ccnc(Cl)c1)C2 (stereo not drawn) [Compound 147] , pIC50 reported as 5.00 to 6.00

Entry Cc1nc(N)nc2c1C(=O)CC(c1ccccc1-c1cccc(OC(F)(F)F)c1)C2 (stereo not drawn) [Compound 112] , pIC50 reported as < 5.00

Entry Cc1nc(N)nc2c1C(=O)CC(c1ccccc1Oc1ncccn1)C2 (stereo not drawn) [Compound 144] , pIC50 reported as 5.00 to 6.00

Entry Cc1nc(N)nc2c1C(=O)CC(c1ccccc1-c1cccc3c1NC(=O)C3)C2 (stereo not drawn) [Compound 131] , pIC50 reported as 5.00 to 6.00

Entry COc1ccc(-c2ccccc2C2CC(=O)c3c(C)nc(N)nc3C2)c(OC)c1 (stereo not drawn) [Compound 107] , pIC50 reported as 5.00 to 6.00

Entry Cc1nc(N)nc2c1C(=O)CC(c1ccccc1-c1ccsc1)C2 (stereo not drawn) [Compound 46] , pIC50 reported as > 6.00

Entry Cc1nc(N)nc2c1C(=O)CC(c1ccccc1-c1cccc(CN(C)C)c1)C2 (stereo not drawn) [Compound 174] , pIC50 reported as 5.00 to 6.00

Entry Cc1ccncc1-c1ccccc1C1CC(=O)c2c(C)nc(N)nc2C1 (stereo not drawn) [Compound 121] , pIC50 reported as < 5.00

Entry Cc1ccc(F)c(-c2ccccc2C2CC(=O)c3c(C)nc(N)nc3C2)c1 (stereo not drawn) [Compound 76] , pIC50 reported as > 6.00

Entry Cc1nc(N)nc2c1C(=O)CC(c1ccccc1C#Cc1ccccc1)C2 (stereo not drawn) [Compound 37] , pIC50 reported as < 5.00

Entry Cc1nc(N)nc2c1C(=O)CC(c1ccccc1-c1cccc(F)c1F)C2 (stereo not drawn) [Compound 83] , pIC50 reported as > 6.00

Entry Cc1nc(N)nc2c1C(=O)CC(c1ccccc1-c1cnccn1)C2 (stereo not drawn) [Compound 31] , pIC50 reported as > 6.00

Entry Cc1nc(N)nc2c1C(=O)CC(c1ccccc1-c1ccnc(Cl)c1)C2 (stereo not drawn) [Compound 82] , pIC50 reported as 5.00 to 6.00

Entry Cc1nc(N)nc2c1C(=O)CC(c1ccccc1-c1cccc(F)n1)C2 (stereo not drawn) [Compound 122] , pIC50 reported as > 6.00

Entry Cc1nc(N)nc2c1C(=O)CC(c1ccccc1-c1cccc(C#N)c1)C2 (stereo not drawn) [Compound 65] , pIC50 reported as 5.00 to 6.00
